pIC50 tested on c-MET receptor tyrosine kinase, GST-c-MET(969-1390) (Homo sapiens): recorded values
Sequence (P08581 969-1390): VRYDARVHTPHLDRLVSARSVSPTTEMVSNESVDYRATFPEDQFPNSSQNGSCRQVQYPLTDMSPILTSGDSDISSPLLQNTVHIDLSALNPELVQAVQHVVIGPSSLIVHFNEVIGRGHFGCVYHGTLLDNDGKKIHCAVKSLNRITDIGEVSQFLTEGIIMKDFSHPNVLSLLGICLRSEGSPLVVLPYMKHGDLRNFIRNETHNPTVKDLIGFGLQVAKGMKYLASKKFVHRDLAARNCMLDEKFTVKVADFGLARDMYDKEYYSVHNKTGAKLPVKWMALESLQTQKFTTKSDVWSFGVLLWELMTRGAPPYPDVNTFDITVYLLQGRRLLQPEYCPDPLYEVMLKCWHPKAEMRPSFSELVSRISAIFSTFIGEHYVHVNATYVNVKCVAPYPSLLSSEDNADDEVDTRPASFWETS
pIC50 field: float, defined as -log10 of concentration (mol/L).

Entry C/C(=N\O)c1ccc2nnc(Cc3c(F)cc4ncc(-c5c(C)noc5C)cc4c3F)n2n1 [Example 23] : reported pIC50 = ?
8.10

Same thing, different molecule: C/C(=N\O)c1ccc2nnc(C3(c4ccc5ncc(N6CCN(C)CC6)cc5c4)CC3)n2n1 [Example 27]
7.51

Same thing, different molecule: CO/N=C(\C)c1ccc2nnc([C@H](C)c3ccc4ncc(-c5cnn(C)c5)cc4c3)n2n1 [Example 3-(R)]
7.59

Same thing, different molecule: C/C(=N\O)c1ccc2nnc([C@H](C)c3c(F)cc4ncc(C(C)(C)O)cc4c3F)n2n1 [24-(R)]
6.84
